Listed molecules paired with reported IC50
# Target entity: indoleamine 2, 3-dioxygenase (IDO1) (Homo sapiens)
# Construct: human peripheral blood mononuclear cells (PBMC) (PB003F; host or cells: human PBMC stimulated with IFN-gamma and LPS
# Experimental protocol: PBMC IDO1 assay (kynurenine detection via mass spectrometry)
# Format: cell-based
# Measurement context: human PBMC stimulated with IFN-γ and LPS, 2 days, kynurenine by mass spectrometry; read-out: IDO1 PBMC pIC50 (converted)
Numeric answer only, unit nM assumed.

Recorded IC50, per entry:
| Molecule | IC50 (nM) |
| --- | --- |
| Cc1ccc(C(=O)NC(CC2CCN(c3ccccc3)CC2)c2ccccc2)s1 (stereo not drawn) | 50.1 |
| CC(C)(C)OC(=O)N1CCC(CC(NC(=O)c2ccc(F)cc2)c2ccc(OCc3ccccc3)nc2)CC1 (stereo not drawn) | 100 |
| CCCOC(=O)N1CCC(CC(NC(=O)c2ccc(Cl)cc2)c2ccccc2)CC1 (stereo not drawn) | 20 |
| Cc1ccc(C(=O)NC(CC2CCN(C(=O)C(F)(F)F)CC2)c2ccccc2)s1 (stereo not drawn) | 20 |

Can you share its IC50? I mean this molecule: CC(C)CC(CC1CCN(C(=O)OC(C)(C)C)CC1)NC(=O)c1ccc(Br)s1 (stereo not drawn)
7.94

Can you share its IC50? I mean this molecule: CCN(CC)c1nnc(C(CC2CCN(C(=O)OC(C)(C)C)CC2)NC(=O)c2ccc(C)s2)o1 (stereo not drawn)
3.98

Can you share its IC50? I mean this molecule: C#Cc1ccc(C(=O)NC(CC2CCN(C(=O)OC(C)(C)C)CC2)c2ccccc2)s1 (stereo not drawn)
3.98

Can you share its IC50? I mean this molecule: COc1ccc([C@@H](CC2CCN(C(=O)OC(C)(C)C)CC2)NC(=O)c2ccc(F)cc2)cn1
158

Can you share its IC50? I mean this molecule: CC(C)(C)OC(=O)N1CCC(C[C@@H](CCNCc2ccccc2)NC(=O)c2ccc(Cl)s2)CC1
15.8

----------
# Target entity: indoleamine 2, 3-dioxygenase (IDO1) (Homo sapiens)
# Construct: human peripheral blood mononuclear cells (PBMC) (PB003F; host or cells: human PBMC stimulated with IFN-gamma and LPS
# Experimental protocol: PBMC IDO1 assay (kynurenine detection via mass spectrometry)
# Format: cell-based
# Measurement context: human PBMC stimulated with IFN-γ and LPS, 2 days, kynurenine by mass spectrometry; read-out: IDO1 PBMC pIC50 (converted)
Listed compounds paired with reported IC50
Numeric answer only, unit µM assumed.

| Compound | Target entity | Unit spec | IC50 |
| --- | --- | --- | --- |
| CCOC(=O)N1CCC(CC(NC(=O)c2ccc(F)cc2)c2ccccc2)CC1 (stereo not shown) | indoleamine 2, 3-dioxygenase (IDO1) (Homo sapiens) | µM | 0.0398 |
| CC(C)(C)OC(=O)N1CCC(CC(NC(=O)c2ccc(Cl)cc2)c2ccccc2)CC1 (stereo not shown) | indoleamine 2, 3-dioxygenase (IDO1) (Homo sapiens) | µM | 0.0158 |
| CC(C)(C)OC(=O)N1CCC(CC(NC(=O)c2ccc(Br)cc2)C2CCCCC2)CC1 (stereo not shown) | indoleamine 2, 3-dioxygenase (IDO1) (Homo sapiens) | µM | 0.02 |
| Cc1ccc(C(=O)NC(CC(C)C)CC2CCN(C(=O)OC(C)(C)C)CC2)s1 (stereo not shown) | indoleamine 2, 3-dioxygenase (IDO1) (Homo sapiens) | µM | 0.00794 |
| CC(C)(C)OC(=O)N1CCC(CC(NC(=O)C2CCCCCC2)c2ccccc2)CC1 (stereo not shown) | indoleamine 2, 3-dioxygenase (IDO1) (Homo sapiens) | µM | 0.398 |

Can you share its IC50? I mean this compound: CC(C)(C)OC(=O)N1CCC(C[C@H](Nc2ncc(-c3ccccc3)o2)C2CC2)CC1
0.1

Can you share its IC50? I mean this compound: CCCNc1nnc(C(CC2CCN(C(=O)OC(C)(C)C)CC2)NC(=O)c2ccc(Cl)s2)o1 (stereo not shown)
0.1

----------
# Target entity: indoleamine 2, 3-dioxygenase (IDO1) (Homo sapiens, UniProt P14902)
# Construct: human peripheral blood mononuclear cells (PBMC) (PB003F; host or cells: human PBMC stimulated with IFN-gamma and LPS
# Sequence (P14902 whole entry): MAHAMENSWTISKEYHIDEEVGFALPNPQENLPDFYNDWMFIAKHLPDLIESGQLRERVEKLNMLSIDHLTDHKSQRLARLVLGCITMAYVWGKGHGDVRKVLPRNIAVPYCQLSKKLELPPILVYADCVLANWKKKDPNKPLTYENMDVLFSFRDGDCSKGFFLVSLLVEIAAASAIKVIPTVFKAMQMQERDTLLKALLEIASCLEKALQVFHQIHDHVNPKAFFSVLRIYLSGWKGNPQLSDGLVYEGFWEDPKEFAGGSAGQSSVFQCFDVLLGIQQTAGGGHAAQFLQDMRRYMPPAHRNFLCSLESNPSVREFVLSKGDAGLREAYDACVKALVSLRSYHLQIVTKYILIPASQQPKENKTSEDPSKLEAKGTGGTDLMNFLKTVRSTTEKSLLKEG
# Experimental protocol: PBMC IDO1 assay (kynurenine detection via mass spectrometry)
# Type: cell-based
# Measurement context: human PBMC stimulated with IFN-γ and LPS, 2 days, kynurenine by mass spectrometry; read-out: IDO1 PBMC pIC50 (converted)
# Procedure: Compounds of the present invention were tested via high-throughput cellular assays utilizing detection of kynurenine via mass spectrometry and cytotoxicity as end-points. […] Cellular toxicity due to the effect of compound treatment was measured using CellTiter-Glo® reagent (CTG) (Promega Corporation, Madison, Wis.), which is based on luminescent detection of ATP, an indicator of metabolically active cells. […]
Measure: IC50 (nM)
Numeric answer only, unit nM assumed.

Can you share its IC50? I mean this compound: CC(C)(C)OC(=O)N1CCC(CC(NC(=O)c2ccc(Cl)c(F)c2)c2ccccc2)CC1 (stereo not drawn)
20

Can you share its IC50? I mean this compound: CC(C)(C)NC(=O)N1CCC(CC(NC(=O)c2ccc(Cl)cc2)c2ccccc2)CC1 (stereo not drawn)
100

Can you share its IC50? I mean this compound: COCCNCC(CC1CCN(C(=O)OC(C)(C)C)CC1)NC(=O)c1ccc(F)cc1 (stereo not drawn)
794

Can you share its IC50? I mean this compound: CC(C)(C)OC(=O)N1CCC(CC(NC(=O)Nc2ccc(F)cc2)c2ccccc2)CC1 (stereo not drawn)
316

----------
# Target entity: indoleamine 2, 3-dioxygenase (IDO1) (Homo sapiens, UniProt P14902)
# Construct: human peripheral blood mononuclear cells (PBMC) (PB003F; host or cells: human PBMC stimulated with IFN-gamma and LPS
# Experimental protocol: PBMC IDO1 assay (kynurenine detection via mass spectrometry)
# Assay type: cell-based
# Measurement context: human PBMC stimulated with IFN-γ and LPS, 2 days, kynurenine by mass spectrometry; read-out: IDO1 PBMC pIC50 (converted)
Measure: IC50 (nM)
Numeric answer only, unit nM assumed.

| Compound | IC50 [nM] |
| --- | --- |
| COC(=O)N1CCC(CC(NC(=O)c2ccc(F)cc2)c2ccccc2)CC1 (centres unmarked) | 126 |
| CCc1ccc(C(=O)N[C@@H](CC2CCN(C(=O)OC(C)(C)C)CC2)c2ccc(OC)nc2)s1 | 3.16 |
| CC(C)(C)OC(=O)N1CCC(C[C@H](Nc2ccnc(Cl)n2)C2CC2)CC1 | 631 |
| COc1ccc([C@H](CC2CCN(C(=O)C(F)(F)c3ccccc3)CC2)NC(=O)c2ccc(Cl)s2)cn1 | 1 |

Shifting focus to the compound that follows.
Can you share its IC50? I mean this compound: CCc1ccc(C(=O)N[C@@H](CC2CCN(C(=O)OC(C)C)CC2)c2ccccc2)s1
7.94
